Tested on: 266 human PDZ domains (PDZome)
Test: Holdup assay (chromatographic retention, PDZome-binding profile, BI)
Design: key: binding intensity: 0.00 = no binding, 1.00 = maximal binding
Details: PDZ domain PDZD2-6
Text: The holdup method is a chromatographic approach in solution developed in our group that allows to measure the binding strength of a peptide, attached to a resin, against a library of domains of a same family. […] The flow-throughs containing the unbound protein fraction are recovered by filtration and loaded on a capillary electrophoresis instrument to quantify the amount of remaining free PDZ. […] The assay is particularly suited to quantitatively evaluate and compare large numbers of interactions. […]
*1 amine or outer side, *2 acyl side, *3 side chain or, on linkers, in order; H or OH if unused. Where a SMILES comes first, the peptide text is derived from it. The star is where a group is joined. X1 = O=C(CCCC[C@@H]1SC[C@@H]2NC(=O)N[C@@H]21)NCCCOCCOCCOCCCN*; Suc = O=C(CCC(=O)[*:2])[*:1]
Below: a set of entries, each annotated with reported BI.
Would you mind answering with just the numeric figure?

Record excerpt, results attached:
CC[C@H](C)[C@H](NC(=O)[C@H](CCC(N)=O)NC(=O)[C@@H](NC(=O)[C@H](Cc1c[nH]cn1)NC(=O)[C@H](CCC(N)=O)NC(=O)[C@H](CC(=O)O)NC(=O)[C@H](CCC(=O)O)NC(=O)[C@H](CC(=O)O)NC(=O)CCC(=O)NCCCOCCOCCOCCCNC(=O)CCCC[C@@H]1SC[C@@H]2NC(=O)N[C@@H]21)[C@@H](C)O)C(=O)N[C@H](C(=O)N[C@@H](CCCNC(=N)N)C(=O)N[C@H](C(=O)O)C(C)C)[C@@H](C)O [PTEN_KR] ({X1-Suc}-DEDQHTQITRV-OH)	0.089
CC[C@H](C)[C@H](NC(=O)[C@H](CCC(N)=O)NC(=O)[C@@H](NC(=O)[C@H](Cc1c[nH]cn1)NC(=O)[C@H](CCC(N)=O)NC(=O)[C@H](CC(=O)O)NC(=O)[C@H](CCC(=O)O)NC(=O)[C@H](CC(=O)O)NC(=O)CCC(=O)NCCCOCCOCCOCCCNC(=O)CCCC[C@@H]1SC[C@@H]2NC(=O)N[C@@H]21)[C@@H](C)O)C(=O)N[C@H](C(=O)N[C@@H](CCCCNC(C)=O)C(=O)N[C@H](C(=O)O)C(C)C)[C@@H](C)O	-0.026
CC[C@H](C)[C@H](NC(=O)[C@H](CCC(N)=O)NC(=O)[C@@H](NC(=O)[C@H](Cc1c[nH]cn1)NC(=O)[C@H](CCC(N)=O)NC(=O)[C@H](CC(=O)O)NC(=O)[C@H](CCC(=O)O)NC(=O)[C@H](CC(=O)O)NC(=O)CCC(=O)NCCCOCCOCCOCCCNC(=O)CCCC[C@@H]1SC[C@@H]2NC(=O)N[C@@H]21)[C@@H](C)O)C(=O)N[C@H](C(=O)N[C@@H](CCCCN)C(=O)N[C@H](C(=O)O)C(C)C)[C@@H](C)O	0.115

# next compound below
Q: Specify reported BI for the compound shown: CC[C@H](C)[C@H](NC(=O)[C@H](CCC(N)=O)NC(=O)[C@@H](NC(=O)[C@H](Cc1c[nH]cn1)NC(=O)[C@H](CCC(N)=O)NC(=O)[C@H](CC(=O)O)NC(=O)[C@H](CCC(=O)O)NC(=O)[C@H](CC(=O)O)NC(=O)[C@H](Cc1ccccc1)NC(=O)[C@@H]1CCCN1C(=O)CCC(=O)NCCCOCCOCCOCCCNC(=O)CCCC[C@@H]1SC[C@@H]2NC(=O)N[C@@H]21)[C@@H](C)O)C(=O)N[C@H](C(=O)N[C@@H](CCCCN)C(=O)N[C@H](C(=O)O)C(C)C)[C@@H](C)O [PTEN_13] ({X1-Suc}-PFDEDQHTQITKV-OH)
Result: -0.066

====

Below: a set of entries, each annotated with reported BI.
Target: GORASP1-1 (Homo sapiens, UniProt Q9BQQ3)
Sequence (Q9BQQ3 2-440): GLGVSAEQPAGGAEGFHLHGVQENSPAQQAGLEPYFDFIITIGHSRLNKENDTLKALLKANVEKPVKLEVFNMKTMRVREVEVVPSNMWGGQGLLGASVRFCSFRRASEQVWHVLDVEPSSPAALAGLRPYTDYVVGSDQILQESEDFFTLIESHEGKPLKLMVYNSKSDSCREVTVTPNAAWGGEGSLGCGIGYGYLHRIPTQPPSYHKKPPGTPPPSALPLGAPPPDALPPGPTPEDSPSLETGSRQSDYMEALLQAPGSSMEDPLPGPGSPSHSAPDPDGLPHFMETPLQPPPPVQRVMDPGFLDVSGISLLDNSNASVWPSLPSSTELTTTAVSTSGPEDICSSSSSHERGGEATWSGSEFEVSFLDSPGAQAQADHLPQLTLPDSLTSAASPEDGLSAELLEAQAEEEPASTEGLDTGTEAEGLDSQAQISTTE
Experiment: Holdup assay, GORASP1-1
Type: binding
*1 amine or outer side, *2 acyl side, *3 side chain or, on linkers, in order; H or OH if unused. Where a SMILES comes first, the peptide text is derived from it. The star is where a group is joined. X1 = O=C(CCCC[C@@H]1SC[C@@H]2NC(=O)N[C@@H]21)NCCCOCCOCCOCCCN*; Suc = O=C(CCC(=O)[*:2])[*:1]
Would you mind answering with just the numeric figure?

CC[C@H](C)[C@H](NC(=O)[C@H](CCC(N)=O)NC(=O)[C@@H](NC(=O)[C@H](Cc1c[nH]cn1)NC(=O)[C@H](CCC(N)=O)NC(=O)[C@H](CC(=O)O)NC(=O)[C@H](CCC(=O)O)NC(=O)[C@H](CC(=O)O)NC(=O)[C@H](Cc1ccccc1)NC(=O)[C@@H]1CCCN1C(=O)CCC(=O)NCCCOCCOCCOCCCNC(=O)CCCC[C@@H]1SC[C@@H]2NC(=O)N[C@@H]21)[C@@H](C)O)C(=O)N[C@H](C(=O)N[C@@H](CCCCN)C(=O)N[C@H](C(=O)O)C(C)C)[C@@H](C)O [PTEN_13] ({X1-Suc}-PFDEDQHTQITKV-OH)	0.076
CC[C@H](C)[C@H](NC(=O)[C@H](CCC(N)=O)NC(=O)[C@@H](NC(=O)[C@H](Cc1c[nH]cn1)NC(=O)[C@H](CCC(N)=O)NC(=O)[C@H](CC(=O)O)NC(=O)[C@H](CCC(=O)O)NC(=O)[C@H](CC(=O)O)NC(=O)CCC(=O)NCCCOCCOCCOCCCNC(=O)CCCC[C@@H]1SC[C@@H]2NC(=O)N[C@@H]21)[C@@H](C)O)C(=O)N[C@H](C(=O)N[C@@H](CCCNC(=N)N)C(=O)N[C@H](C(=O)O)C(C)C)[C@@H](C)O [PTEN_KR] ({X1-Suc}-DEDQHTQITRV-OH)	0.122
CC[C@H](C)[C@H](NC(=O)[C@H](CCC(N)=O)NC(=O)[C@@H](NC(=O)[C@H](Cc1c[nH]cn1)NC(=O)[C@H](CCC(N)=O)NC(=O)[C@H](CC(=O)O)NC(=O)[C@H](CCC(=O)O)NC(=O)[C@H](CC(=O)O)NC(=O)CCC(=O)NCCCOCCOCCOCCCNC(=O)CCCC[C@@H]1SC[C@@H]2NC(=O)N[C@@H]21)[C@@H](C)O)C(=O)N[C@H](C(=O)N[C@@H](CCCCN)C(=O)N[C@H](C(=O)O)C(C)C)[C@@H](C)O	0.037

# next compound below
Q: Specify reported BI for the compound shown: `CC[C@H](C)[C@H](NC(=O)[C@H](CCC(N)=O)NC(=O)[C@@H](NC(=O)[C@H](Cc1c[nH]cn1)NC(=O)[C@H](CCC(N)=O)NC(=O)[C@H](CC(=O)O)NC(=O)[C@H](CCC(=O)O)NC(=O)[C@H](CC(=O)O)NC(=O)CCC(=O)NCCCOCCOCCOCCCNC(=O)CCCC[C@@H]1SC[C@@H]2NC(=O)N[C@@H]21)[C@@H](C)O)C(=O)N[C@H](C(=O)N[C@@H](CCCCNC(C)=O)C(=O)N[C@H](C(=O)O)C(C)C)[C@@H](C)O`
Result: 0.151

====

Below: a set of entries, each annotated with reported BI.
Tested on: 266 human PDZ domains (PDZome)
Assay: Holdup assay (chromatographic retention, PDZome-binding profile, BI)
Parameters: key: binding intensity: 0.00 = no binding, 1.00 = maximal binding
Settings: PDZ domain RAPGEF2-1
*1 amine or outer side, *2 acyl side, *3 side chain or, on linkers, in order; H or OH if unused. Where a SMILES comes first, the peptide text is derived from it. The star is where a group is joined. X1 = O=C(CCCC[C@@H]1SC[C@@H]2NC(=O)N[C@@H]21)NCCCOCCOCCOCCCN*; Suc = O=C(CCC(=O)[*:2])[*:1]

Q: Specify reported BI for the compound shown: `CC[C@H](C)[C@H](NC(=O)[C@H](CCC(N)=O)NC(=O)[C@@H](NC(=O)[C@H](Cc1c[nH]cn1)NC(=O)[C@H](CCC(N)=O)NC(=O)[C@H](CC(=O)O)NC(=O)[C@H](CCC(=O)O)NC(=O)[C@H](CC(=O)O)NC(=O)CCC(=O)NCCCOCCOCCOCCCNC(=O)CCCC[C@@H]1SC[C@@H]2NC(=O)N[C@@H]21)[C@@H](C)O)C(=O)N[C@H](C(=O)N[C@@H](CCCCN)C(=O)N[C@H](C(=O)O)C(C)C)[C@@H](C)O`
Result: -0.045

Q: Specify reported BI for the compound shown: CC[C@H](C)[C@H](NC(=O)[C@H](CCC(N)=O)NC(=O)[C@@H](NC(=O)[C@H](Cc1c[nH]cn1)NC(=O)[C@H](CCC(N)=O)NC(=O)[C@H](CC(=O)O)NC(=O)[C@H](CCC(=O)O)NC(=O)[C@H](CC(=O)O)NC(=O)[C@H](Cc1ccccc1)NC(=O)[C@@H]1CCCN1C(=O)CCC(=O)NCCCOCCOCCOCCCNC(=O)CCCC[C@@H]1SC[C@@H]2NC(=O)N[C@@H]21)[C@@H](C)O)C(=O)N[C@H](C(=O)N[C@@H](CCCCN)C(=O)N[C@H](C(=O)O)C(C)C)[C@@H](C)O [PTEN_13] ({X1-Suc}-PFDEDQHTQITKV-OH)
Result: -0.023

Q: Specify reported BI for the compound shown: `CC[C@H](C)[C@H](NC(=O)[C@H](CCC(N)=O)NC(=O)[C@@H](NC(=O)[C@H](Cc1c[nH]cn1)NC(=O)[C@H](CCC(N)=O)NC(=O)[C@H](CC(=O)O)NC(=O)[C@H](CCC(=O)O)NC(=O)[C@H](CC(=O)O)NC(=O)CCC(=O)NCCCOCCOCCOCCCNC(=O)CCCC[C@@H]1SC[C@@H]2NC(=O)N[C@@H]21)[C@@H](C)O)C(=O)N[C@H](C(=O)N[C@@H](CCCCNC(C)=O)C(=O)N[C@H](C(=O)O)C(C)C)[C@@H](C)O`
Result: -0.076

Q: Specify reported BI for the compound shown: CC[C@H](C)[C@H](NC(=O)[C@H](CCC(N)=O)NC(=O)[C@@H](NC(=O)[C@H](Cc1c[nH]cn1)NC(=O)[C@H](CCC(N)=O)NC(=O)[C@H](CC(=O)O)NC(=O)[C@H](CCC(=O)O)NC(=O)[C@H](CC(=O)O)NC(=O)CCC(=O)NCCCOCCOCCOCCCNC(=O)CCCC[C@@H]1SC[C@@H]2NC(=O)N[C@@H]21)[C@@H](C)O)C(=O)N[C@H](C(=O)N[C@@H](CCCNC(=N)N)C(=O)N[C@H](C(=O)O)C(C)C)[C@@H](C)O [PTEN_KR] ({X1-Suc}-DEDQHTQITRV-OH)
Result: -0.11
